Assign AUC(0-inf) to each entry below.
- EXPERIMENT_SUMMARY: PK study of SM components in plasma of AIA rats by UPLC-MS/MS (MG vs MPS group)
- STATED_CONDITIONS: Sprague-Dawley, rat, plasma, po, 39.2 g/kg/day, AUC 0-∞, MG group: AIA rats, saline 21 days, then oral SM 39.2 g crude drug/kg; plasma; mean ± SEM

INSERT INTO assay_data (query_smiles, property, result) VALUES
  ('COc1ccc(-c2coc3cc(O)ccc3c2=O)cc1', 'AUC(0-inf)', '0.0175 µg·h/mL');

Give me AUC(0-inf) for each of these molecules, listed below.
1. O=C(/C=C/c1ccc(O)cc1)c1ccc(O)cc1O
2. CC1(C)[C@@H](O[C@H]2O[C@H](C(=O)O)[C@@H](O)[C@H](O)[C@H]2O[C@@H]2O[C@H](C(=O)O)[C@@H](O)[C@H](O)[C@H]2O)CC[C@]2(C)[C@H]3C(=O)C=C4[C@@H]5C[C@@](C)(C(=O)O)CC[C@]5(C)CC[C@@]4(C)[C@]3(C)CC[C@@H]12

Solution:
1. 0.00961 µg·h/mL
2. 25.9 µg·h/mL

Problem: Name the recorded AUC(0-inf) of the item CC1(C)[C@@H](O)CC[C@]2(C)[C@H]3C(=O)C=C4[C@@H]5C[C@@](C)(C(=O)O)CC[C@]5(C)CC[C@@]4(C)[C@]3(C)CC[C@@H]12 in your answer.
Solution: 32.9 µg·h/mL

Data origin: paper PMC10787407
